Molecular target: KDM4C (Homo sapiens, UniProt Q9H3R0)
Construct: N-terminal GST-tagged KDM4C^2-372 was purchased from BPS Biosciences; GST (N); purchased BPS Biosciences
Sequence (Q9H3R0 2-372): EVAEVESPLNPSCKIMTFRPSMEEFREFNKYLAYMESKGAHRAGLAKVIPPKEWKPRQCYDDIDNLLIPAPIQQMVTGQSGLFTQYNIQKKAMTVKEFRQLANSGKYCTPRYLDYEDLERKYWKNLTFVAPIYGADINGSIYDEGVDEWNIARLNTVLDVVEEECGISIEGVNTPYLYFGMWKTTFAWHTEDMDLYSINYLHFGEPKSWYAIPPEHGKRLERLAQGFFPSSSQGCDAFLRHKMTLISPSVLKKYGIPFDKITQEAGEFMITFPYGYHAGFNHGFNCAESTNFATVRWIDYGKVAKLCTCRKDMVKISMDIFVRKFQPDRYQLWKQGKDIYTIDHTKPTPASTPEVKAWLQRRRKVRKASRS
Assay: KDM4C Assay (SAMDI mass spectrometry demethylase assay)
Format: biochemical
Conditions: N-terminal GST-tagged KDM4C 2-372; class symbols; read-out: 4C IC50
METRIC_NAME: IC50

Solved cases (3 shown):
{"COMPOUND": "COc1ccc(-n2nc(C)c(Nc3cnccc3C(=O)O)c2C)cc1 [Compound 75]", "IC50": "1 to 10 µM"}
{"COMPOUND": "Cc1c(Nc2cnccc2C(=O)O)cnn1C1CCNCC1 [Compound 68]", "IC50": "0.1 to 1 µM"}
{"COMPOUND": "Cn1nc(-c2cccc(Cl)c2)cc1Nc1cnccc1C(=O)O [Compound 25]", "IC50": "1 to 10 µM"}

API: the following record is the query input.
Task: # lookup: IC50 of Cc1c(Nc2cnccc2C(=O)O)cnn1C1CCN(C2CCC2)CC1 [Compound 96]
Result: 0.1 to 1 µM

Data credit: patent US20170291890A1
